Molecular target: T1, recombinant mouse DLL4 (C-terminally His-tagged extracellular domain, R&D Systems) (mouse, UniProt Q9JI71 27-532)
T1 construct: extracellular domain; also called rmDLL4; mDLL4
T1 sequence (Q9JI71 27-532): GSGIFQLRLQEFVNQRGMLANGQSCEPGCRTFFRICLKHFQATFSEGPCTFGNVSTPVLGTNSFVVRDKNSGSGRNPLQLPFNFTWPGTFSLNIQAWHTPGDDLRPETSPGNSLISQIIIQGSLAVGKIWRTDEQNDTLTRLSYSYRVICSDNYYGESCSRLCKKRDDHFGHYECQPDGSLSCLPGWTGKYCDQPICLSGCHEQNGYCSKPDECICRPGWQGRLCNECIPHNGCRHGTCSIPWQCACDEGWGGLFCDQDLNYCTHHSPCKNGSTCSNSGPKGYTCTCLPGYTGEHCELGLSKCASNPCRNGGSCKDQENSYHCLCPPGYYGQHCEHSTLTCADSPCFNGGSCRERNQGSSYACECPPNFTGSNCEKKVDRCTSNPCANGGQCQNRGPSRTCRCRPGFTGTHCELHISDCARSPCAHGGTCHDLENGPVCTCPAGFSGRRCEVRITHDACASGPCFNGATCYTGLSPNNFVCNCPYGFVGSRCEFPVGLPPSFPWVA
Assay: SPR (Biacore); summary table
ASSAY_ENDPOINT: pKd
When answering, recall that pKd equals minus log10 of the concentration in mol/L, and write that number alone.

pKd reported for this binder DLLBII129B05 (VHH, not shown: small tags and cut ends) VHH: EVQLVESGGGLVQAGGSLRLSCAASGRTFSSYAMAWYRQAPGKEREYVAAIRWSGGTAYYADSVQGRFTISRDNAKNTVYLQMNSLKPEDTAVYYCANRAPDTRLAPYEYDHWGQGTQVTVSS : 8.96

pKd reported for this binder DLLBII133G05 (VHH, not shown: small tags and cut ends) VHH: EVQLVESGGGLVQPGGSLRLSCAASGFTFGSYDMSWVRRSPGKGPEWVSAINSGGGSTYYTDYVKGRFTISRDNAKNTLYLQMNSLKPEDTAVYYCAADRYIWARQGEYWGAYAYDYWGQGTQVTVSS : 8.47

pKd reported for this binder DLLBII129E11 (VHH, not shown: small tags and cut ends) VHH: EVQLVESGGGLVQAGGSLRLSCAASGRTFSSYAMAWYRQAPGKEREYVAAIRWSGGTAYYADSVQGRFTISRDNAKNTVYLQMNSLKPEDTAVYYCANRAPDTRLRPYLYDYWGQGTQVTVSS : 8.92

Reference source: patent US20140120095A1
